// reported % CHX-R per item
- System: Tetrahymena cells
- Test Summary: Progeny formation (cycloheximide resistance) of Tetrahymena conjugated in the presence of analog
- Type: cell-based, Tetrahymena thermophila
- Conditions Used: 1.0 mM analog (head prints MM), first block for the analog
Assay Endpoint: % CHX-R (%)

> print(dat)
                               smiles.entry  display.unit  recorded.value
1  Nc1nc2c(ncn2[C@H]2CC[C@@H](CO)O2)c(=O)[nH]1             %              77
2  Nc1nc2c(ncn2[C@@H]2O[C@H](CO)[C@@H](O)[C@@H]2O)c(=O)[nH]1             %              55
3  Cc1cn([C@H]2C[C@H](N=[N+]=[N-])[C@@H](CO)O2)c(=O)[nH]c1=O             %              55
4    O=c1[nH]cnc2c1ncn2[C@H]1CC[C@@H](CO)O1             %              91

====

- System: Tetrahymena cells
- Test Summary: Progeny formation (cycloheximide resistance) of Tetrahymena conjugated in the presence of analog
- Assay type: cell-based, Tetrahymena thermophila
- Conditions Used: 0.1 mM analog (head prints MM), first block for the analog
Entries and their measured % CHX-R follow.
Assay Endpoint: % CHX-R (%)

> print(dat)
                               smiles.entry    target.of.assay  recorded.value
1  Nc1nc2c(ncn2[C@H]2CC[C@@H](CO)O2)c(=O)[nH]1  Tetrahymena cells              85
2  Cc1cn([C@H]2C[C@H](N=[N+]=[N-])[C@@H](CO)O2)c(=O)[nH]c1=O  Tetrahymena cells              68
3  Nc1nc2c(ncn2[C@@H]2O[C@H](CO)[C@@H](O)[C@@H]2O)c(=O)[nH]1  Tetrahymena cells              80
4    O=c1[nH]cnc2c1ncn2[C@H]1CC[C@@H](CO)O1  Tetrahymena cells              78

====

- Target Of Assay: Tetrahymena thermophila telomerase (Tetrahymena thermophila, UniProt O77448)
- Construct: A standard assay contained 50% by volume of heparin-agarose purified telomerase; endogenous in cells; host or cells: Tetrahymena thermophila cell extracts, heparin-agarose purified
- Sequence (O77448 1-1117): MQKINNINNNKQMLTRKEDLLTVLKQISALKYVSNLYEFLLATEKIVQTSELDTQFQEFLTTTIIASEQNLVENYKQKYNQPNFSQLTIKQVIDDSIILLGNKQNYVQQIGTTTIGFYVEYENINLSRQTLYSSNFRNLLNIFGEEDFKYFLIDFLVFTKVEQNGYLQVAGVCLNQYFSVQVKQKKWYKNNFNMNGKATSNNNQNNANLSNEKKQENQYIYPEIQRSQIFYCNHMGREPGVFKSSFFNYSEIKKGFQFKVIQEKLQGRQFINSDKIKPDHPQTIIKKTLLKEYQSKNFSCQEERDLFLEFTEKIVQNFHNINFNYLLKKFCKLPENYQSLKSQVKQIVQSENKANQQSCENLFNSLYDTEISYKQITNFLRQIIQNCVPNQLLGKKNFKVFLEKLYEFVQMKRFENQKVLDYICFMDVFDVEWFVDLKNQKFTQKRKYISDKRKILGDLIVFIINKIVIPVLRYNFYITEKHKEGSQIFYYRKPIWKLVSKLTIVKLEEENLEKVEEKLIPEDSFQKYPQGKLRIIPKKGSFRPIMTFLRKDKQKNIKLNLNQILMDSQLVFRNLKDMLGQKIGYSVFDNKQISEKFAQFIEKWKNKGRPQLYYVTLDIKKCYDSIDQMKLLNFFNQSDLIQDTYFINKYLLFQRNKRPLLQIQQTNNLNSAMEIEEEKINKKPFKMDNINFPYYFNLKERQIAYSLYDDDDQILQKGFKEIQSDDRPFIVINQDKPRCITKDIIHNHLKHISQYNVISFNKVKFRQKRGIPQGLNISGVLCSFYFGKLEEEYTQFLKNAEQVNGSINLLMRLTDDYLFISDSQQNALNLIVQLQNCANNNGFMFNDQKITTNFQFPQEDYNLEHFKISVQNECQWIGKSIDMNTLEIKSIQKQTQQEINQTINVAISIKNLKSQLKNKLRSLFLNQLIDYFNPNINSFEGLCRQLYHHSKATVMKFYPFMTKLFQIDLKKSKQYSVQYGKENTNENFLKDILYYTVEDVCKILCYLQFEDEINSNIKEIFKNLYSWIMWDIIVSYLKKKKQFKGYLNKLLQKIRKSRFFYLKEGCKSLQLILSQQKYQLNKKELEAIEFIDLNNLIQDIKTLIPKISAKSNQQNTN
- Sequence (W7X6T2 1-542 partner): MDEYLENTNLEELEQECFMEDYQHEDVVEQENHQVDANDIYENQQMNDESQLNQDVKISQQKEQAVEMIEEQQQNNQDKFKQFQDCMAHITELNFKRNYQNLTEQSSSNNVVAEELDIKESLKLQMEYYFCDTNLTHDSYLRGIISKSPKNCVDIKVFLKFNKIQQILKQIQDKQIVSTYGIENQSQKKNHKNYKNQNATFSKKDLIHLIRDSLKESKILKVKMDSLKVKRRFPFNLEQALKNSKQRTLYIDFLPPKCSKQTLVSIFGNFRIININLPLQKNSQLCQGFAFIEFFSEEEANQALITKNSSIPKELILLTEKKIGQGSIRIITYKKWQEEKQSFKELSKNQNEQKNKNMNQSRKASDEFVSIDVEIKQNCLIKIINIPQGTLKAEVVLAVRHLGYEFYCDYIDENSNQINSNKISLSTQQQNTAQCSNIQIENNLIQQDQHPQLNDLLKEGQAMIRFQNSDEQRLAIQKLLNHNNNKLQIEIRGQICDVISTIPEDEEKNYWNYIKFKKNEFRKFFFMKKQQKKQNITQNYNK
- Test Summary: Tetrahymena telomerase in vitro assay (incorporation of 32P label, gel of products)
- Type: biochemical
- Conditions Used: standard assay, 32P-dGTP / 32P-NTP incorporation, 30 min at 30° C.; read-out: concentration at which 50% inhibition of incorporation of 32P label occurred
pIC50: −log10 of the molar value.

Compound	pIC50
Nc1nc2c(ncn2[C@@H]2O[C@H](COP(=O)(O)OP(=O)(O)OP(=O)(O)O)[C@@H](O)[C@@H]2O)c(=O)[nH]1 [Ara-GTP, arabinofuranyl-guanosine triphosphate]	6.15
